Assign log10 of IC50 to each entry below.
Target: Caspase-1 (Homo sapiens, UniProt P29466)
Sequence (P29466 120-297 limits assumed): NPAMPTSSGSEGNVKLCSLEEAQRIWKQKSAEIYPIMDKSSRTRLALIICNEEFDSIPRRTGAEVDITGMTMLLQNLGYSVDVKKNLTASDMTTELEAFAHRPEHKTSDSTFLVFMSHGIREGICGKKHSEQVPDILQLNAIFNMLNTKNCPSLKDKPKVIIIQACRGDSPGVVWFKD
Sequence (P29466 317-404 limits assumed): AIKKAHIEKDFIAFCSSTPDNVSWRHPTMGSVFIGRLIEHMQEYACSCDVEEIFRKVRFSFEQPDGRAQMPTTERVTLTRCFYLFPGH
Experiment: Inhibition of recombinant human caspase-1 expressed in Escherichia coli BL21 cells using […] as substrate incubated for 30 mins
Log scale reminder: IC50 in µM, then log10 taken.

Enquiry: Quick one: give measured log10 of IC50 for COC(=O)[C@@H]1C[C@@H](N=C=S)C=C[C@@]12C(=O)N(C(=O)OCc1ccccc1)c1ccccc12
Return: 1.47

Enquiry: Quick one: give measured log10 of IC50 for CC(C)(C)OC(=O)[C@@H]1C[C@@H](N=C=S)C=C[C@@]12C(=O)N(C(=O)OCc1ccccc1)c1cc(Br)ccc12
Return: 1.19

Enquiry: Quick one: give measured log10 of IC50 for COc1ccc2c(c1)[C@]1(C=C[C@H](N=C=S)C[C@H]1C(=O)OC(C)(C)C)C(=O)N2C(=O)OCc1ccccc1
Return: -0.19

Enquiry: Quick one: give measured log10 of IC50 for Cc1ccc2c(c1)[C@]1(C=C[C@H](N=C=S)C[C@H]1C(=O)OC(C)(C)C)C(=O)N2C(=O)OCc1ccccc1
Return: 1.45

Enquiry: Quick one: give measured log10 of IC50 for CC(C)(C)OC(=O)[C@@H]1C[C@@H](N=C=S)C=C[C@@]12C(=O)N(C(=O)OCc1ccccc1)c1cc(F)c(F)cc12
Return: 1.64

Enquiry: Quick one: give measured log10 of IC50 for O=C(OCc1ccccc1)[C@@H]1C[C@@H](N=C=S)C=C[C@@]12C(=O)N(C(=O)OCc1ccccc1)c1ccccc12
Return: 1.93

Enquiry: Quick one: give measured log10 of IC50 for CC(C)(C)OC(=O)[C@@H]1C[C@@H](N=C=S)C=C[C@@]12C(=O)N(C(=O)OCc1ccccc1)c1ccc(Br)cc12
Return: 1.95

Enquiry: Quick one: give measured log10 of IC50 for CC(C)(C)OC(=O)[C@@H]1C[C@@H](N=C=S)C=C[C@@]12C(=O)N(C(=O)OCC1c3ccccc3-c3ccccc31)c1ccccc12
Return: 1.88

Enquiry: Quick one: give measured log10 of IC50 for CC(C)(C)OC(=O)[C@@H]1C[C@@H](N=C=S)C=C[C@@]12C(=O)N(C(=O)OCc1ccccc1)c1ccc(F)cc12
Return: 1.91

* * *

Assign pIC50 to each entry below.
Molecular target: Caspase-1 (Homo sapiens, UniProt P29466)
Assay: Inhibition of recombinant human caspase-1 expressed in Escherichia coli BL21 cells using […] as substrate incubated for 30 mins
The value called pIC50 is obtained by taking minus log10 of the concentration in mol/L.

Enquiry: Quick one: give measured pIC50 for CC(C)(C)OC(=O)[C@@H]1C[C@@H](N=C=S)C=C[C@@]12C(=O)N(C(=O)OCc1ccccc1)c1c(F)cccc12
Return: 4.10

Enquiry: Quick one: give measured pIC50 for CC(C)(C)OC(=O)[C@@H]1C[C@@H](N=C=S)C=C[C@@]12C(=O)N(C(=O)OCc1ccccc1)c1ccc(Cl)cc12
Return: 4.07

Enquiry: Quick one: give measured pIC50 for CC(C)(C)OC(=O)[C@@H]1C[C@@H](N=C=S)C=C[C@@]12C(=O)N(C(=O)OCc1ccccc1)c1ccccc12
Return: 4.43

Enquiry: Quick one: give measured pIC50 for CC(C)OC(=O)[C@@H]1C[C@@H](N=C=S)C=C[C@@]12C(=O)N(C(=O)OCc1ccccc1)c1ccccc12
Return: 4.14

Enquiry: Quick one: give measured pIC50 for COC(=O)N1C(=O)[C@@]2(C=C[C@H](N=C=S)C[C@H]2C(=O)OC(C)(C)C)c2ccccc21
Return: 4.24

Enquiry: Quick one: give measured pIC50 for O=C(c1ccccc1)[C@@H]1C[C@@H](N=C=S)C=C[C@@]12C(=O)N(C(=O)OCc1ccccc1)c1ccccc12
Return: 4.58

Enquiry: Quick one: give measured pIC50 for COc1ccc2c(c1)[C@]1(C=C[C@H](N=C=S)C[C@H]1C(=O)OC(C)(C)C)C(=O)N2
Return: 4.39
